All figures here come from PubChem BioAssay.

# EXPERIMENTAL_DETAILS: E. coli DRC41 culture turbidity changes, primary screen, E. coli filamentation inducer project, strain DRC41, OD650, 48 h (AID 1152);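 note: E. coli MC1000 strain DRC41 lacking acrAB efflux pump and sulA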
# TEST_PARAMETERS: E. coli DRC41 (acrAB sulA), higher = more signal, called active from +8 up or from −8 down
Classes based on z-score: bottom end: < -0.6; midrange: ≥ -0.6 and < 0.8; top end: ≥ 0.8

Record excerpt, results attached:
compound=CCOC(=O)C[C@H]1[C@H](OC(=O)c2ccc(C(=O)c3ccccc3)cc2)[C@@H](NC(=O)c2ccc3ccccc3c2)c2cc(OCCCO)ccc2N1C(=O)c1ccc2ccccc2n1 category_label="top end"
compound=C=CC[C@]1(C(=O)OC)N=C(c2ccc(OCCCO)cc2)O[C@H]1c1ccccc1N=[N+]=[N-] category_label="bottom end"

(Q) Class? Entry: Cc1c(NC(=O)/C(C#N)=C/c2ccc(Cl)cc2)c(=O)n(-c2ccccc2)n1C
(A) midrange

(Q) Class? Entry: CC(C)=CCN(C(=O)C#Cc1ccccc1)[C@H](CO)c1ccccc1
(A) bottom end

(Q) Class? Entry: COCCOC(=O)N1C(=O)[C@@]2(c3ccccc31)[C@H](c1ccc(OCCO)cc1)N1[C@H](c3ccccc3)[C@H](c3ccccc3)OC(=O)[C@H]1[C@@H]2C(=O)N1CCN(c2ncccn2)CC1
(A) midrange

(Q) Class? Entry: CCCCC(=C=CC[C@@H](O)c1cccc(OCCO)c1)CCO
(A) top end

(Q) Class? Entry: [N-]=[N+]=NCc1ccccc1C[C@@]1(C(=O)O)N=C(c2ccc(OCCCO)cc2)O[C@@H]1c1ccccc1CN=[N+]=[N-]
(A) midrange

(Q) Class? Entry: CC1CC/C=C\[C@H]2OC34C=CCN(CCN5CCOCC5)C(=O)[C@H]3N(CCCCCCO)C(=O)[C@@H]4C2C(=O)O1 (some centres not stated)
(A) midrange

(Q) Class? Entry: C=CCNC(=O)[C@H]1[C@@H]2C(=O)O[C@@H](c3ccccc3)[C@@H](c3ccccc3)N2[C@@H](c2ccccc2OCCO)[C@]12C(=O)N(C(=O)OCCOC)c1ccccc12
(A) midrange

----------
# EXPERIMENTAL_DETAILS: basal S. cerevisiae growth modulation, no modifier, primary screen, OD600, strain BY4716, 24 h, basal condition (AID 1173)
# TEST_PARAMETERS: OD600, 24 h, higher = more signal, called active from +8 up or from −8 down
Kindly return satisfied if reported z-score is no lower than -0.1; return not satisfied if it is lower.

Record excerpt, results attached:
compound_smiles=COC(=O)c1ccc([C@H](NC(=O)c2ccccc2)[C@]2(C)C[C@H]2C2CCCCC2)cc1 category_label=satisfied
compound_smiles=COCCOC(=O)N1C(=O)[C@@]2(c3cc(C#CCC(C(=O)OC)C(=O)OC)ccc31)[C@H](C(=O)N1CCCCCCC1)[C@H]1C(=O)O[C@H](c3ccccc3)[C@H](c3ccccc3)N1[C@@H]2c1ccccc1OCCO category_label=satisfied

(Q) Check this molecule for z-score at or above -0.1: COC(=O)[C@@]1(Cc2ccccc2CN=[N+]=[N-])COC(c2ccc(OCCCO)cc2)=N1
(A) not satisfied

(Q) Check this molecule for z-score at or above -0.1: CO[C@H]1O[C@H](CO)[C@@H](OC(=O)Nc2ccc(C(F)(F)F)cc2)[C@H](OC(=O)Nc2ccccc2-c2ccccc2)[C@@H]1OC(=O)Nc1ccccc1-c1ccccc1
(A) satisfied

(Q) Check this molecule for z-score at or above -0.1: CN(C)C(=O)[C@]1(Cc2ccccc2CN=[N+]=[N-])N=C(c2ccc(OCCCO)cc2)O[C@@H]1c1ccccc1N=[N+]=[N-]
(A) satisfied

(Q) Check this molecule for z-score at or above -0.1: COCCOC(=O)N1C(=O)[C@@]2(c3cc(C#CCCO)ccc31)[C@H](C(=O)N1CCN(c3ncccn3)CC1)[C@H]1C(=O)O[C@H](c3ccccc3)[C@H](c3ccccc3)N1[C@@H]2c1ccc(O)cc1
(A) not satisfied

(Q) Check this molecule for z-score at or above -0.1: CC(C)=CCN(C(=O)C#Cc1ccccc1)[C@H](CO)c1ccccc1
(A) not satisfied

(Q) Check this molecule for z-score at or above -0.1: CO[C@H]1O[C@H](CO)[C@@H](OC(=O)Nc2ccccc2)[C@@H]2OC(=O)[C@H](Cc3ccccc3)C/C=C/C[C@@H](Cc3ccccc3)C(=O)O[C@@H]12
(A) satisfied
